Let's look at some compounds and their measured IC50.
System: H929 cells
Assay: CCK-8 cell viability
Format: cell-based
Conditions: Homo sapiens, NCI-H929, 48 h, read-out: cytotoxicity (IC50) H929
readout: IC50

- substance-smiles: "O=C(/C=C/c1cn(-c2cccc(Cl)c2)nc1-c1ccc(O)cc1)N[C@@H](Cc1c[nH]c2ccccc12)C(=O)O"
  readout: "IC50"
  obs-value: "> 50 µM"
- substance-smiles: "COC(=O)[C@H](Cc1c[nH]c2ccccc12)NC(=O)/C=C/c1cn(-c2cccc(Cl)c2)nc1-c1ccc(N2CCOCC2)cc1"
  readout: "IC50"
  obs-value: "> 20 µM"
- substance-smiles: "COC(=O)[C@H](Cc1c[nH]c2ccccc12)NC(=O)/C=C/c1cn(-c2ccccc2)nc1-c1ccc2ccccc2c1"
  readout: "IC50"
  obs-value: "7.97 µM"
- substance-smiles: "COC(=O)[C@H](Cc1c[nH]c2ccccc12)NC(=O)/C=C/c1cn(-c2cccc(Cl)c2)nc1-c1ccc(O)cc1"
  readout: "IC50"
  obs-value: "3.71 µM"
- substance-smiles: "Nc1ccc(-c2nn(-c3cccc(Cl)c3)cc2/C=C/C(=O)N[C@@H](Cc2c[nH]c3ccccc23)C(=O)O)cc1"
  readout: "IC50"
  obs-value: "> 50 µM"
- substance-smiles: "O=C(/C=C/c1cn(-c2cccc(Cl)c2)nc1-c1ccc(C2CCCCC2)cc1)N[C@@H](Cc1c[nH]c2ccccc12)C(=O)O"
  readout: "IC50"
  obs-value: "> 50 µM"
- substance-smiles: "COC(=O)[C@H](Cc1c[nH]c2ccccc12)NC(=O)/C=C/c1cn(-c2cccc(Cl)c2)nc1-c1ccc(N)cc1"
  readout: "IC50"
  obs-value: "3.89 µM"

====

Test system: HeLa cells
Test: CCK-8 cell viability
Type: cell-based
Conditions: Homo sapiens, 48 h, read-out: cytotoxicity (IC50) HeLa
pIC50: −log10 of the molar value.
Let's look at some compounds and their measured pIC50.

- substance-smiles: "COC(=O)[C@H](Cc1c[nH]c2ccccc12)NC(=O)/C=C/c1cn(-c2ccccc2)nc1-c1ccc2ccccc2c1"
  pIC50: "< 4.70"
- substance-smiles: "O=C(/C=C/c1cn(-c2cccc(Cl)c2)nc1-c1ccc(N2CCOCC2)cc1)N[C@@H](Cc1c[nH]c2ccccc12)C(=O)O"
  pIC50: "< 4.30"
- substance-smiles: "O=C(/C=C/c1cn(-c2cccc(Cl)c2)nc1-c1ccc(C2CCCCC2)cc1)N[C@@H](Cc1c[nH]c2ccccc12)C(=O)O"
  pIC50: "< 4.30"

====

Assay: stability in liver microsomes
Format: in vitro ADME
Conditions: rat, pooled rat liver microsomes

- substance-smiles: "COC(=O)[C@H](Cc1c[nH]c2ccccc12)NC(=O)/C=C/c1cn(-c2cccc(Cl)c2)nc1-c1ccc(O)cc1"
  unit-abbreviation: "h"
  half-life at 1.4 μM: 1.92
